System: MS2 coat protein
test.details: apparent KD of MS2 coat protein; higher = weaker reporter binding
assay.conditions: Eterna round: R107; input ligand: arginine 13.2 mM
Entries and their apparent KD of MS2 coat protein values follow.
Give the value, in units of µM, as a plain number.

Worked examples follow.
- primary.sequence: "AUACAUGAGGCGGCCGCCACUUUACAUGAGGAUCAACAUGAGGAUCACCCAUGUUACAUGUGGAUAAGGACCGGGCCUCAUGUAU [Same State Tryptophan B 2]"
  study.target: "MS2 coat protein"
  apparent KD of MS2 coat protein / µM: 0.0519
- primary.sequence: "AUAACAUGAGGAUCACCCAUGUAUUGGUAACGAGGACCGGUACGGCCGCCACUCGUAUUUUGGUGGUAUUAUAUAUAUAUGAUUA [JR_SSTryptoA_Sub017]"
  study.target: "MS2 coat protein"
  apparent KD of MS2 coat protein / µM: 0.0241
- primary.sequence: "ACAAGAGGGAUGGAUACCAGCGACAUGAGGAUCACCCAUGUAUGAGGAUCAGCCAUGUUAUGCCCUUGGCAGCCACGAAGAUCAG [XXXMULLIN]"
  study.target: "MS2 coat protein"
  apparent KD of MS2 coat protein / µM: 0.0271
- primary.sequence: "AGUAGUUGACAAAAGUCAGCUACAACUGAAGGAGCGGGUGGGUGCCCAGGUAGGUCGCAGGAACAUGAGGAUCACCCAUGUAUAA [ArgAS 3 #BothOrNeither #OpenEnded]"
  study.target: "MS2 coat protein"
  apparent KD of MS2 coat protein / µM: 0.0359

Now take the following sequence into account.
The reported apparent KD of MS2 coat protein value, MS2 coat protein, for UAUUAUCAGUCGGCCGCCACUGACACAUGAGGAUCACCCAUGUAAUUUGGGUUAUAUAUAAAUUACAGGACCGGGACAAAGGCUA [JR_ExcTryptoB_Sub013] reads 0.114

====

Test system: K4 kissing-loop RNA reporter;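 also: bound reporter read as fluorescence of individual clusters on recovered sequencing chips by microscopy, with normalized cluster intensities fitted with a binding model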
test.details: apparent KD of K4 kissing-loop reporter; higher = weaker reporter binding
assay.conditions: Eterna round: R107; input ligand: tryptophan 2.4 mM
observation.type: apparent KD of K4 kissing-loop reporter (nM)
Give the value, in units of nM, as a plain number.

Worked examples follow.
- primary.sequence: "UUUUAAUGCAGUGAUGUUGCUAAUAAAACAGAGGAUAUGCAUGGAAGCAGAAGGCUGAUAUAUUAUACUUUAAUAUAUUAUAUUU [JR_SSFMNA_Sub011]"
  study.target: "K4 kissing-loop RNA reporter"
  apparent KD of K4 kissing-loop reporter, nM: 86.6
- primary.sequence: "AAAAUAAAUCAGUGAUGUUGGUAUCUGGAUACCAGCGAUAAUAAUCGCCCUUGGCAGCCAUGGACGUACAAAAUAAGUACGUCCU [MatMod 18 - Jieux - Same State - Theophylline A]"
  study.target: "K4 kissing-loop RNA reporter"
  apparent KD of K4 kissing-loop reporter, nM: 200
- primary.sequence: "UGUCAUUGGUCGGCCGCCACUAUAUAAAAGAGUGAUGUUCUAAAGACGGAUCGAAAGAUCUGUCAUAGGACCGGGACCGAUGACU [TrypBS 20 #SwitchBubble #StaticStem]"
  study.target: "K4 kissing-loop RNA reporter"
  apparent KD of K4 kissing-loop reporter, nM: 1140

Summary for this sequence, UUUUUGGUUUAGAGUGAUGUUCCUUGUAAUCGAGGACCGGUACGGCCGCCACUCGAUUAGAAAAGAAAAGAAAAGAGUGAUGUUU [BDazzled - #2 SS Tryptophan A] : apparent KD of K4 kissing-loop reporter is 243

Summary for this sequence, UUACAGGAACAAGGAUAUGGCGUUGUAGUGAUGUUACAGCGAAGAGCUCCACGCGAUCGGACAAAACCAGAAGGUGUAUGGAAUC [theeternabot_exclusion_KL_FMN_B_42] : apparent KD of K4 kissing-loop reporter is 112

Summary for this sequence, AAACGUUGGUGCGAUACCAGCUUGCGCGGAAAACGCGCUACUGGAGUGAUGUUCCUAAAUAGCCCUUGGCAGCGCACCGACGAAA [MAT - Same State Theophlline B - Mod of Eli - D9] : apparent KD of K4 kissing-loop reporter is 170

Summary for this sequence, UAAAUUAUCUGAAGGAGCGUGAAAUAAUAUUAAACAUAACAACCCAGUGAUGUUGGGUUAUCACAGGUAGGUCGCAGAUGUAGAU [Same State Arginie B GF 24] : apparent KD of K4 kissing-loop reporter is 85.5

Summary for this sequence, AGUAGAGCAUCAGAUACCAGACAGAACUGAUGGUAAGGAGUGAUGUUCCUUAAUCAGCUUGUCCCUUGGCAGCUGAUAAUAGUCA [#13 K4 Theophylline B Same State] : apparent KD of K4 kissing-loop reporter is 438
